- assay target: T1, TNFR1 (Homo sapiens, UniProt P19438)
- T1 chain: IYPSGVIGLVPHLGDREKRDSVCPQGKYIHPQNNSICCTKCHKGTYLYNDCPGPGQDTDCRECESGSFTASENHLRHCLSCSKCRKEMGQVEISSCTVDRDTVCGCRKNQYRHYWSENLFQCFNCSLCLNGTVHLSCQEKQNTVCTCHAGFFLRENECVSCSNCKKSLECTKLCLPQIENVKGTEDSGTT
- assay notes: yeast display SC50
Rule: apparent Kd (screen) below 0.5 nM gives T. Equal to or above 0.5 nM gives F.

Some entries whose results are on file:
binder: A88I (designed binder) MTLQELLREEALRRAEAEAFRYALELLAEKFPEQKEYLLDLAEEIESQIRSLSGVDVEDVRKFLDKEWAWVKELLAEHPAELAEVEAIRAARLAELRAEVEAKVAA
category label: F
--
binder: D65Q (designed binder) MTLQELLREEALRRAEAEAFRYALELLAEKFPEQKEYLLDLAEEIESQIRSLSGVDVEDVRKFLQKEWAWVKELLAEHPAELAEVEAARAARLAELRAEVEAKVAA
category label: F
--
binder: L74S (designed binder) MTLQELLREEALRRAEAEAFRYALELLAEKFPEQKEYLLDLAEEIESQIRSLSGVDVEDVRKFLDKEWAWVKESLAEHPAELAEVEAARAARLAELRAEVEAKVAA
category label: F
--
binder: A87R (designed binder) MTLQELLREEALRRAEAEAFRYALELLAEKFPEQKEYLLDLAEEIESQIRSLSGVDVEDVRKFLDKEWAWVKELLAEHPAELAEVERARAARLAELRAEVEAKVAA
category label: T
--
binder: A106T (designed binder) MTLQELLREEALRRAEAEAFRYALELLAEKFPEQKEYLLDLAEEIESQIRSLSGVDVEDVRKFLDKEWAWVKELLAEHPAELAEVEAARAARLAELRAEVEAKVAT
category label: F

# input Lab note: apparent Kd (screen) threshold 0.5 nM. Does this binder come in strictly under it? L41Y (designed binder) MTLQELLREEALRRAEAEAFRYALELLAEKFPEQKEYLLDYAEEIESQIRSLSGVDVEDVRKFLDKEWAWVKELLAEHPAELAEVEAARAARLAELRAEVEAKVAA
# output F
